B1: H2-Kb / B5 (parent)
chain 1: TQTVSQSDAHVTVFEGDSVELRCNYSYGGSIYLSWYIQHHGHGLQFLLKYYSGNPVVQGVNGFEAEFSKSDSSFHLRKASVHWSDSAVYFCAVSLYQGGRALIFGTGTTVSVSP
chain 2: EAGVTQSPRYAVLQEGQAVSFWCDPISGHDTLYWYQQPRDQGPQLLVYFRDEAVIDNSQLPSDRFSAVRPKGTNSTLKIQSAKQGDTATYLCASSFAGGARAEQFFGPGTRLTVL
chain 3: not shown
chain 4: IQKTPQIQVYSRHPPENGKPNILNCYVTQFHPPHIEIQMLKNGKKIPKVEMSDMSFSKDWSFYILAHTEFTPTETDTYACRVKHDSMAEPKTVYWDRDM
chain 5: SIINFEKL

variants of: B1; assay: % of reporter cells activated (NFAT-GFP), raw; settings: with B5; scale: % of reporter cells activated; further: test concentration or dose not given here
Observed Property: ratio to parent

A selection of reference data follows.
So for chain 5 I2P , the logged ratio to parent turned out to be 1.12

So for chain 5 N4A , the logged ratio to parent turned out to be 0.931

So for chain 5 S1P , the logged ratio to parent turned out to be 0.917

So for chain 5 E6D , the logged ratio to parent turned out to be 1

So for chain 5 K7M , the logged ratio to parent turned out to be 1.57

So for chain 5 L8K , the logged ratio to parent turned out to be 0.903

(a) chain 5 I3C
(b) chain 5 I3S
Which gives the smaller ratio to parent number: a or b ? Indicate which entry you chose by stating its label.
a
(a: 0.792, b: 1.54)
